Overview of recorded IC50 for various compounds
target: BCL6 (Homo sapiens (Human), UniProt P41182)
assayNotes: Immunofluorescence high content imaging of BCL6 degradation in T47D cells
Assay type: cell-based
measurementContext: T47D cells

Recorded results for 4 compounds are shown here.
{"compound": "CCCOc1cc(N2CCC(CN3CCN(c4ncc(Cl)c(Nc5ccc6c(c5)cc(OCC(=O)NC)c(=O)n6C)n4)CC3)CC2)ccc1C(=O)NC1CCC(=O)NC1=O (centres unmarked) [compound 345]", "IC50": "≥ 100 nM"}
{"compound": "CNC(=O)COc1cc2cc(Nc3nc(N4CCC(O[C@H]5C[C@H](N6CCC(c7ccc8c(c7)C(=O)N(C7CCC(=O)NC7=O)C8=O)CC6)C5)CC4)ncc3Cl)ccc2n(C(C)C)c1=O (some centres unmarked) [compound 403]", "IC50": "< 10 nM"}
{"compound": "CNC(=O)COc1cc2cc(Nc3nc(N4CCN(CC5CCN(c6cccc(C(=O)NC7CCC(=O)NC7=O)c6OC)CC5)CC4)ncc3Cl)ccc2n(C)c1=O (centres unmarked) [compound 325]", "IC50": "< 10 nM"}
{"compound": "CCn1c(=O)c(OCC(=O)NC)cc2cc(Nc3nc(N4CCN(CC5CCN(c6ccc(C(=O)NC7CCC(=O)NC7=O)c(OC)c6)CC5)CC4)ncc3Cl)ccc21 (centres unmarked) [compound 375]", "IC50": "< 10 nM"}

Okay, next one:
So what's the measured IC50 for this one? CNC(=O)COc1cc2cc(Nc3nc(N4CCC(CN5CCC(c6nc(C(=O)NC7CCC(=O)NC7=O)cs6)CC5)CC4)ncc3Cl)ccc2n(C)c1=O (centres unmarked) [compound 360]
10 to 50 nM

---

target: BCL6 (Homo sapiens (Human), UniProt P41182)
assayNotes: BCL6 TR-FRET assay (BCL6-Avitag-Biotin / BCoR-Cy5 peptide)
Type: binding
measurementContext: read-out: IC50
experimentalReadout: IC50

{"compound": "CNC(=O)COc1cc2cc(Nc3nc(N4CCC(CN5CCC6(CC5)CCN(c5ccc7c(c5)C(=O)N(C5CCC(=O)NC5=O)C7=O)C6)CC4)ncc3Cl)ccc2n(C(C)C)c1=O (centres unmarked) [compound 489]", "observedResult": "< 10 nM"}
{"compound": "CNC(=O)COc1cc2cc(Nc3nc(N4CCC(CN5CCC(c6cc(OC)cc(C(=O)NC7CCC(=O)NC7=O)c6F)CC5)CC4)ncc3Cl)ccc2n(C(C)C)c1=O (centres unmarked) [compound 462]", "observedResult": "≥ 100 nM"}
{"compound": "CNC(=O)COc1cc2cc(Nc3nc(N4CCC(CN5CCC(c6cc(OC)cc(C(=O)NC7CCC(=O)NC7=O)c6F)CC5)CC4)ncc3Cl)ccc2n(C)c1=O (centres unmarked) [compound 467]", "observedResult": "10 to 50 nM"}

Could you share which IC50 value was measured for CNC(=O)COc1cc2cc(Nc3nc(N4CCN(CC5CCC6(CC5)CN(c5ccc(F)c7c5C(=O)N(C5CCC(=O)NC5=O)C7=O)C6)CC4)ncc3Cl)ccc2n(C(C)C)c1=O (centres unmarked) [compound 541] ?
< 10 nM

Look at this compound and give its reported IC50. CNC(=O)COc1cc2cc(Nc3nc(N4CCN(CC5CCC6(CC5)CN(c5ccc7c(c5)C(=O)N(C5CCC(=O)NC5=O)C7=O)C6)CC4)ncc3Cl)ccc2n(C(C)C)c1=O (centres unmarked) [compound 451]
< 10 nM

---

target: BCL6 (Homo sapiens (Human), UniProt P41182)
assayNotes: Immunofluorescence high content imaging of BCL6 degradation in T47D cells
Format: cell-based
Quick list: IC50 per entry.

Answered examples (8):
{"compound": "CC(=O)[C@@H](C)Oc1cc2cc(Nc3nc(N4CCC(CN5CCN(c6ccc7c(c6)C(=O)N([C@@H]6CCC(=O)NC6=O)C7=O)CC5)CC4)ncc3Cl)ccc2n(C)c1=O", "observedResult": "≥ 100 nM"}
{"compound": "Cn1c(=O)c(-c2nnc[nH]2)cc2cc(Nc3nc(N4CCC(CN5CCN(c6ccc7c(c6)C(=O)N(C6CCC(=O)NC6=O)C7=O)CC5)CC4)ncc3Cl)ccc21 (centres unmarked)", "observedResult": "≥ 100 nM"}
{"compound": "CCn1c(=O)c(OCC(=O)NC)cc2cc(Nc3nc(N4CCN(CC5CCN(c6ccc7c(c6)C(=O)N(C6CCC(=O)NC6=O)C7=O)CC5)CC4)ncc3Cl)ccc21 (centres unmarked)", "observedResult": "< 10 nM"}
{"compound": "CNC(=O)COc1cc2cc(Nc3nc(N4CCN(CC5CCN(c6cccc(F)c6C(=O)NC6CCC(=O)NC6=O)CC5)CC4)ncc3Cl)ccc2n(C)c1=O (centres unmarked)", "observedResult": "< 10 nM"}
{"compound": "CNC(=O)CCC1Oc2cc(Nc3nc(N4CCN(C(C)(C)C5CCN(c6ccc7c(c6)C(=O)N(C6CCC(=O)NC6=O)C7=O)CC5)CC4)ncc3Cl)ccc2N(C)C1=O (centres unmarked)", "observedResult": "≥ 100 nM"}
{"compound": "CNC(=O)COc1cc2cc(Nc3nc(N4C[C@@H](C)N(CC5CCN(c6ccc(C(=O)NC7CCC(=O)NC7=O)c(F)c6)CC5)[C@@H](C)C4)ncc3Cl)ccc2n(C)c1=O (some centres unmarked)", "observedResult": "10 to 50 nM"}
{"compound": "CC(=O)[C@H](C)Oc1cc2cc(Nc3nc(N4CCC(CN5CCN(c6ccc7c(c6)C(=O)N([C@H]6CCC(=O)NC6=O)C7=O)CC5)CC4)ncc3Cl)ccc2n(C)c1=O", "observedResult": "≥ 100 nM"}
{"compound": "CC(=O)COc1cc2cc(Nc3nc(N4CCC(N5CCC(Oc6ccc7c(c6)C(=O)N(C6CCC(=O)NC6=O)C7=O)C5)CC4)ncc3Cl)ccc2n(C)c1=O (centres unmarked)", "observedResult": "≥ 100 nM"}

Please report the recorded IC50 for CNC(=O)COc1cc2cc(Nc3nc(N4CCC(CN5CC6(C5)CN(c5ccc7c(c5)C(=O)N(C5CCC(=O)NC5=O)C7=O)C6)CC4)ncc3Cl)ccc2n(C(C)C)c1=O (centres unmarked) .
< 10 nM

// returns reported IC50 for input CNC(=O)COc1cc2cc(Nc3nc(N4CCN(C(C)(C)C5CCN(c6ccc7c(c6)C(=O)N(C6CCC(=O)NC6=O)C7=O)CC5)CC4)ncc3Cl)ccc2n(C)c1=O (centres unmarked)
< 10 nM

Find the recorded IC50 belonging to CNC(=O)COc1cc2cc(Nc3nc(N4CCC(CN5CCC(n6cnc7c(C(=O)NC8CCC(=O)NC8=O)cccc76)CC5)CC4)ncc3Cl)ccc2n(C)c1=O (centres unmarked) and report it.
≥ 100 nM

---

We begin with a simple list: items and their reported IC50.
target: BCL6 (Homo sapiens (Human))
assayNotes: Immunofluorescence high content imaging of BCL6 degradation in T47D cells
Format: cell-based
measurementContext: T47D cells

Below, each entry is followed by its recorded IC50 result.
{"molecule": "CNC(=O)COc1cc2cc(Nc3nc(N4CCC5(CC4)CC(OC4CCN(c6ccc7c(c6)C(=O)N(C6CCC(=O)NC6=O)C7=O)CC4)C5)ncc3Cl)ccc2n(C(C)C)c1=O (stereo not drawn)", "target": "BCL6 (Homo sapiens (Human))", "observedResult": "≥ 100 nM"}
{"molecule": "CNC(=O)COc1cc2cc(Nc3nc(N4C[C@@H](COc5ccc6c(c5)C(=O)N(C5CCC(=O)NC5=O)C6=O)O[C@@H](C)C4)ncc3Cl)ccc2n(C(C)C)c1=O (stereo partly drawn)", "target": "BCL6 (Homo sapiens (Human))", "observedResult": "10 to 50 nM"}

Kindly consider the entry below.
// lookup IC50 for CCn1c(=O)c(OCC(=O)NC)cc2cc(Nc3nc(N4CCC(OCC5CCN(c6ccc7c(c6)C(=O)N(C6CCC(=O)NC6=O)C7=O)CC5)CC4)ncc3Cl)ccc21 (stereo not drawn)
< 10 nM

---

Reported Dmax values follow for various molecules
target: BCL6 (Homo sapiens (Human), UniProt P41182)
assayNotes: Immunofluorescence high content imaging of BCL6 degradation in T47D cells
Assay type: cell-based
measurementContext: T47D cells
Description: Immunofluorescence Protocol for High Cotent Imaging of BCL6 T47D cells were seeded in 100 μl volume of RPMI1640-10% FBS in a 96-well black/clear bottom plates for adherent lines (Corning #3904). Day 1. T47D breast cancer epithelial cells were seeded at a density so that confluence is ˜70-90% at endpoint. Cells were seeded at 7K/0.1 ml/well the morning prior to the addition of exemplary bifunctional degradation compounds. Day 2. […] Plates were equilibrated to room temperature prior to reading. […]

{"molecule": "CNC(=O)COc1cc2cc(Nc3nc(N4CCC[C@H](COc5cccc6c5C(=O)N(C5CCC(=O)NC5=O)C6=O)C4)ncc3Cl)ccc2n(CCC2CC2)c1=O (stereo partly drawn)", "Dmax": "≥ 70%"}
{"molecule": "CCCn1c(=O)c(OCC(=O)NC)cc2cc(Nc3nc(N4CCC[C@H](COc5cccc6c5C(=O)N(C5CCC(=O)NC5=O)C6=O)C4)ncc3Cl)ccc21 (stereo partly drawn)", "Dmax": "50 to 70%"}

Now for another entry.
Sample CNC(=O)COc1cc2cc(Nc3nc(N4CCO[C@H](COc5ccc(C(=O)NC6CCC(=O)NC6=O)c(F)c5)C4)ncc3Cl)ccc2n(C(C)C)c1=O (stereo partly drawn) — what was its Dmax?
< 50%
